B1: LARP4 (parent)
chain: WTVANMEEIKKLTTDPDLILEVLR

# Variants of: B1
# method_summary: protein stability index of a GFP-peptide fusion (GPS, HEK-293T) (PSI 1-6); higher = more stable;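 also: lentivirally expressed fusions sorted by FACS into six bins by GFP to DsRed ratio, PSI derived from sequencing read proportions per bin multiplied by bin number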
# applied_conditions: c terminus: a fixed tail appended
Tick rule met if protein stability index is 2 or greater. Tick rule not met if protein stability index is less than 2.

D17G ... rule not met
R24K ... rule not met
V22C ... rule met
K10T ... rule not met
I9E ... rule met

From here, focus on the item given below.
Lookup: Does protein stability index meet or surpass 2 for "I19M" ?
Found: rule met
